Recorded Reactivity (OD 492 nm), one value per entry.
Biological target: T1, HCV bt-151-171 (Peptide 3, HCVc 151-171) (Hepatitis C virus (numbering per HCV-1), biotin (carboxy-terminal per; N-terminal per))
T1 peptide: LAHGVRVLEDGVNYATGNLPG
Experiment: EIA, captured mAb + biotin peptide
Express it in OD units; write the number only.

- HCV 208A-126 (antibody, V domains shown) VH: QLQQSGPVLVKPGASVMISCKTSGYTFTENAMHWVKQSHGKSLEWIGGVNPNNGDTIFNQKFKGKATLTVDKSSNTAFTELRSLPSEESTVYYCVRRGLDFFDYWGQGTSVTVSS VL: DIVLTQSPASLAVSLGQRATISCRASQSVSTSRYSYMHWYQQKPGQPPKLLIKYASNLESGVPARFSGSGSGTDFTLNIHPVAEEDTAAYYCQHSWEFPFTFGSGTKLEIKR: 0.1

In: Item HCV 208B-281 (antibody, V domains shown) VH: QGQLQQSGAELVKPGASVKLSCKTSGFTFSSSYISWLKQRPGQSLEWIAWIYAGTGGTNYNQKFTDKAQLTVDTSSSTAYMQFSSLTTEDSAIYYCAISGTGFIYWGQGTLVTVSA VL: DVLMTQTPLSLPVSLGDQASISCRSSQSLVHNNGNTYLEWFLQKPGQSPKLLIYKVSNRFSGVPDRFSGSGSGTDFTLKISRVEAEDLGVYYCFQGSHVPFTFGSGTKLEIKR : provide Reactivity (OD 492 nm)
Out: 0.12

In: Item HCV 208B-174 (antibody, V domains shown) VH: EVKLEESGGGLVQPGGSMKLSCVASGFSFSSYWMSWVRQSPEKGLDWVAEIRLRSDNYATHYAESVKGRFTISRDDSISRLYLQMNTLRAEDTGIYYCTWMTYWGQGTLVTVSA VL: QNVLTQSPAIMSASPGEKVTMSCSASSSVTYMFWYQLKPESSPRLLIYDTSNLASGVPVRFSGSGSGTSYSLTISRMEAEDAATYYCQEWSSYPLTFGAGTKLDLKR : provide Reactivity (OD 492 nm)
Out: 0.07

In: Item HCV 208B-1024 (antibody, V domains shown) VH: EVQLVESGGDLVKPGGSLKLSCAASGFTFSNYGMSWVRQTPDKRLEWVATISSGGSYSYYPDSVKGRFTISRDNAKNILYLQMSSLKSEDTAMYYCASLYYGYGDYWGQGTAFTVSS VL: DVLMTQTPLSLPVSLGDQASISCRSSQSIVHSNGNTYLEWYLQKLGQSPKLLIYRVSNRFSGVPDRFSGSGSGTDFTLKISRVEAEDLGVYYCFQGSHVPWTFGGGTKLEIKR : provide Reactivity (OD 492 nm)
Out: 0.15

In: Item HCV 208B-793 (antibody, V domains shown) VH: EVKLVESGGGLVQPGGSLKLSCAASGFTFSSYAMSWVRQTPERRLEWVTYISNGGGSTYYSDTVKGRFTFSRDNAKNTLYLQMSSLKSEDTAMYYCARHGLGRTGFASWGQGTLVTVSA VL: DIVMTQSHKFMSTSVGDRVSITCKASQDVGTAVAWYQQKPGQSPKLLIYWASTRHTGVPDRFTGSGSGTDFTLTISNVQSEDLADYFCQQYSNYLTFGAGTKLEVKR : provide Reactivity (OD 492 nm)
Out: 0.09
